target: WIZ (Homo sapiens, UniProt O95785+Q96SW2); construct: expressed in transfected cells; experiment: Quantification of WIZ protein levels in HiBit tag fusion protein assay (293T cells); type: cell-based; details: HEK-293T; at 25 uM, 100 − Amax; read-out: % degradation of WIZ (100 − Amax)
Sequence (O95785 whole entry, the tested form may be a part): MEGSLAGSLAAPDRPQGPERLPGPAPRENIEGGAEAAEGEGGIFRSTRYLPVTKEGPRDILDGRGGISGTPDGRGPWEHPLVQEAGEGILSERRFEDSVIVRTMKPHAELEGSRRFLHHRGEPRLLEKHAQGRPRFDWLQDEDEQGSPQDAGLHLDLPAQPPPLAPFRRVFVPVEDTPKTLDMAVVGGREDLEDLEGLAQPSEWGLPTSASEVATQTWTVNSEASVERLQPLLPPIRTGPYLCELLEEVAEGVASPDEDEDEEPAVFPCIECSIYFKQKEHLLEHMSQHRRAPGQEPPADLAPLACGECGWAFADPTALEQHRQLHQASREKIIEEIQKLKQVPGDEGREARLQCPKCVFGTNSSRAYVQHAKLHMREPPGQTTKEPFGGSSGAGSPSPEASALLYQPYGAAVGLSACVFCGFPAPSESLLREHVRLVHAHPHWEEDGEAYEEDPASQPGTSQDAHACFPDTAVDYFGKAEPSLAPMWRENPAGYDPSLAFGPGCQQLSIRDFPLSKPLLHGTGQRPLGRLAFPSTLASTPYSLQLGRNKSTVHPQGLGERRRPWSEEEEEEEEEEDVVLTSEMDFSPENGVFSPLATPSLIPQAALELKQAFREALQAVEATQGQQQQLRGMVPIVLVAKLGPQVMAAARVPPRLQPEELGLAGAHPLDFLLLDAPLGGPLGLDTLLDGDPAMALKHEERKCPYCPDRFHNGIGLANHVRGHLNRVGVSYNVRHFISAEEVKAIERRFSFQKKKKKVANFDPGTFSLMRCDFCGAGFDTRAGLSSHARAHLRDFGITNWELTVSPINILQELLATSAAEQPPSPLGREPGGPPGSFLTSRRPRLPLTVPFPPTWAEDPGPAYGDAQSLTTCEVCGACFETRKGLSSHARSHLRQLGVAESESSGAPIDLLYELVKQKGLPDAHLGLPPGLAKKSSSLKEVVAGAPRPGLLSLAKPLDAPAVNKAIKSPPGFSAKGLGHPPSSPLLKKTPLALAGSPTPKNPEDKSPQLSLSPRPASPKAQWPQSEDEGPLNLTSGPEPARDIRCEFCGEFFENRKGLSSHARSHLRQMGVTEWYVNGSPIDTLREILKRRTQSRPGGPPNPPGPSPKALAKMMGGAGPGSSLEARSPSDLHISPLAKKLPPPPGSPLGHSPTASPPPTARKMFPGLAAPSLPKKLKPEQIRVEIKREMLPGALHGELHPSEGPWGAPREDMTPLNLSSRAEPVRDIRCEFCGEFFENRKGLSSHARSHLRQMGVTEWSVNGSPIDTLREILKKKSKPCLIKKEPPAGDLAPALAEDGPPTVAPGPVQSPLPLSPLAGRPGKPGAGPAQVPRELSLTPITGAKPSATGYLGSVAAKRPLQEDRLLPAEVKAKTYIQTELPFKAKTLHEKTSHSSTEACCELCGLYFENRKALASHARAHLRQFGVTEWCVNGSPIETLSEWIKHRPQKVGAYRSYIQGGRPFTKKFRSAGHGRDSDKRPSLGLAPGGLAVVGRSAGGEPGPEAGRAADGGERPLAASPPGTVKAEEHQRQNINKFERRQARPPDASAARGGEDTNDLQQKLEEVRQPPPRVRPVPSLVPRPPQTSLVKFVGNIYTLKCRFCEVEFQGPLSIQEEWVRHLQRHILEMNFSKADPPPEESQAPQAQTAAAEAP
Sequence (Q96SW2 whole entry, the tested form may be a part): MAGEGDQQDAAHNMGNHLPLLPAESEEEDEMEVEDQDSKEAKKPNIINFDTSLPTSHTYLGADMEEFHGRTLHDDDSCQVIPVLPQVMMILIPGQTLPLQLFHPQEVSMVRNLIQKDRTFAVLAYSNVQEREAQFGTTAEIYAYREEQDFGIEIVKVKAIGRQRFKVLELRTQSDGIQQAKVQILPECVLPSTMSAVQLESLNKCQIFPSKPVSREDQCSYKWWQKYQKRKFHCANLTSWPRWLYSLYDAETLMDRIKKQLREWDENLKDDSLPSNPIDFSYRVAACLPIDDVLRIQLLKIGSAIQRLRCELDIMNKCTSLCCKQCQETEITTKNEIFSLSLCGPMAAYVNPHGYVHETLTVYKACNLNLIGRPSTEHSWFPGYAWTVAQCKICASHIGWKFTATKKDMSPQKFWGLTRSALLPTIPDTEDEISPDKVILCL
Sequence (Q16531 whole entry partner, the tested form may be a part): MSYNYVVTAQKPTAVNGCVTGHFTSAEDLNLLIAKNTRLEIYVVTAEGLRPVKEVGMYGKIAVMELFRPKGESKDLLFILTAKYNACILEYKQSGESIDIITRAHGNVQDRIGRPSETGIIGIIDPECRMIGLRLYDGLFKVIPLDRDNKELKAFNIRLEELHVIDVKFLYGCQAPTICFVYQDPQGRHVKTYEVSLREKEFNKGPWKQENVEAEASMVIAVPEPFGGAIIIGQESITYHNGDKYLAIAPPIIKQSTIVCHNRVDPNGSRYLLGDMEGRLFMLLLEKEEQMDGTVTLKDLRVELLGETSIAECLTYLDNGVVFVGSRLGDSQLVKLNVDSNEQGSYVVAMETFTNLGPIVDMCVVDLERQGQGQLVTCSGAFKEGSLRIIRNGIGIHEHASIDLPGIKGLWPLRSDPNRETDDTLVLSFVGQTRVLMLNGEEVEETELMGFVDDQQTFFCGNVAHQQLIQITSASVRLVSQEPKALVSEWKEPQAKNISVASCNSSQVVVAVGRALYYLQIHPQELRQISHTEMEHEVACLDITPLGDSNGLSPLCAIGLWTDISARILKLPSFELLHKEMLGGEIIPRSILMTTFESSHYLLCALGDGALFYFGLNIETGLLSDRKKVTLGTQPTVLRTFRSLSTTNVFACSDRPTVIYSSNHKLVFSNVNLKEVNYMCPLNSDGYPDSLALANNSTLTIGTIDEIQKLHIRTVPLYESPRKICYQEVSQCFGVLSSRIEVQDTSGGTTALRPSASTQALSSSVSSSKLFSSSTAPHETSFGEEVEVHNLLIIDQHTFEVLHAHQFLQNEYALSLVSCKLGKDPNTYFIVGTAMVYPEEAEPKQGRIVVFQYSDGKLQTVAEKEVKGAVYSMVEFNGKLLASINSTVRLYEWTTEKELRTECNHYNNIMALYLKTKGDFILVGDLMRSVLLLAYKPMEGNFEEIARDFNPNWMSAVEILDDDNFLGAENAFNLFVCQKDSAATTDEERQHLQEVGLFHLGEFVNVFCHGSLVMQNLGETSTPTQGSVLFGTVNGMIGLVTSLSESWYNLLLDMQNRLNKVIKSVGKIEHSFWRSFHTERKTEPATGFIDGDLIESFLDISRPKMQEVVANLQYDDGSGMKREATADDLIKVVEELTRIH
Binned Dmax at 25 µM; ranges: bottom range = under 40%, center range = from 40% up to 70%, top range = 70% and over

# Compound, Discrete label
records = [
    ("O=C1CCC(N2Cc3cc(O[C@@H]4CCCN(C5CCOCC5)C4)ccc3C2=O)C(=O)N1 (stereo partly drawn) [Example 10]", "center range"),
    ("CC[C@H](C)N1CCC2(CC2)[C@@H](Oc2ccc3c(c2)CN(C2CCC(=O)NC2=O)C3=O)C1 (stereo partly drawn) [Example 17]", "top range"),
    ("CCN1C[C@@H]2C[C@@H]2[C@H](Oc2ccc3c(c2)CN(C2CCC(=O)NC2=O)C3=O)C1 (relative stereo) [Example 53]", "bottom range"),
    ("CC(C)CN1C[C@H](C)C[C@@H](Oc2ccc3c(c2)CN(C2CCC(=O)NC2=O)C3=O)C1 (stereo partly drawn) [Example 79]", "top range"),
    ("O=C1CCC(N2Cc3cc(O[C@@H]4CCCN(CC5CCC5)C4)ccc3C2=O)C(=O)N1 (stereo partly drawn) [Example 7]", "center range"),
]

Record CCO[C@@H]1C[C@@H](Oc2ccc3c(c2)CN(C2CCC(=O)NC2=O)C3=O)CN(S(C)(=O)=O)C1 (stereo partly drawn) [Example 71] — which class?
center range

GET /class?item= O=C1CCC(N2Cc3cc(O[C@@H]4CCCN(C5CCCC5)C4)ccc3C2=O)C(=O)N1 (stereo partly drawn) [Example 42]
top range

In plain terms, what class is CCN1C[C@H](O)C[C@@H](Oc2ccc3c(c2)CN(C2CCC(=O)NC2=O)C3=O)C1 (stereo partly drawn) [Example 66] ?
top range

Using the reported Dmax at 25 µM, which band applies to CCN1C[C@H]2C[C@H]2[C@H](Oc2ccc3c(c2)CN(C2CCC(=O)NC2=O)C3=O)C1 (single isomer, unassigned) [Example 20] ?
bottom range

Please let me know in which category the item O=C1CCC(N2Cc3cc(O[C@@H]4CCCN(CC5CC5)C4)ccc3C2=O)C(=O)N1 (stereo partly drawn) [Example 13] belongs.
top range

----------
target: WIZ (Homo sapiens, UniProt O95785+Q96SW2); construct: expressed in transfected cells; assay: Quantification of WIZ protein levels in HiBit tag fusion protein assay (293T cells); format: cell-based; details: HEK-293T; DMSO-normalized, curve-fitted percentage of WIZ-HiBit remaining at 25 uM; read-out: WIZ Amax
Recorded endpoint: remaining activity at 25 µM (%)
Numbers only here, please. The scale is %.

# Molecule, Observed result
data = [
    ("CCN1CC[C@H](Oc2ccc3c(c2)CN(C2CCC(=O)NC2=O)C3=O)C1 (stereo partly shown)", 73.5),
    ("CCN1C[C@H](O)C[C@@H](Oc2ccc3c(c2)CN(C2CCC(=O)NC2=O)C3=O)C1 (stereo partly shown)", 19.9),
    ("O=C1CCC(N2Cc3cc(O[C@@H]4CCCN(CC5CCC(F)(F)CC5)C4)ccc3C2=O)C(=O)N1 (stereo partly shown)", 77.3),
]

Pending molecule:
remaining activity at 25 µM reading for CC(C)N1C[C@H](C)C[C@@H](Oc2ccc3c(c2)CN(C2CCC(=O)NC2=O)C3=O)C1 (stereo partly shown) : 13.6
